measuredTarget: human HDAC3/SMRT heterodimer (Homo sapiens (Human), UniProt O15379)
Sequence (O15379 whole entry): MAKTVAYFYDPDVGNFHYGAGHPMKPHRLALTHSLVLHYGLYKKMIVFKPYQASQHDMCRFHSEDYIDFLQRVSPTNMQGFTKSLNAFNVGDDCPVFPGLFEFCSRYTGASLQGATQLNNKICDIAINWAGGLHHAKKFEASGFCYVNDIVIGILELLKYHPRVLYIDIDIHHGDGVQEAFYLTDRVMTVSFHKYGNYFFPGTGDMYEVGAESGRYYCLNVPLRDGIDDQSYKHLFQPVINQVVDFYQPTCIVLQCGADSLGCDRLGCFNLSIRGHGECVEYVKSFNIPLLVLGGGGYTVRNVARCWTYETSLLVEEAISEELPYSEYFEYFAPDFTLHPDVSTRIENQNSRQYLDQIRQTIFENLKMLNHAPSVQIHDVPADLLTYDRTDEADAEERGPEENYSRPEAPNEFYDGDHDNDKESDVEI
Sequence (Q9Y618 1-899 partner): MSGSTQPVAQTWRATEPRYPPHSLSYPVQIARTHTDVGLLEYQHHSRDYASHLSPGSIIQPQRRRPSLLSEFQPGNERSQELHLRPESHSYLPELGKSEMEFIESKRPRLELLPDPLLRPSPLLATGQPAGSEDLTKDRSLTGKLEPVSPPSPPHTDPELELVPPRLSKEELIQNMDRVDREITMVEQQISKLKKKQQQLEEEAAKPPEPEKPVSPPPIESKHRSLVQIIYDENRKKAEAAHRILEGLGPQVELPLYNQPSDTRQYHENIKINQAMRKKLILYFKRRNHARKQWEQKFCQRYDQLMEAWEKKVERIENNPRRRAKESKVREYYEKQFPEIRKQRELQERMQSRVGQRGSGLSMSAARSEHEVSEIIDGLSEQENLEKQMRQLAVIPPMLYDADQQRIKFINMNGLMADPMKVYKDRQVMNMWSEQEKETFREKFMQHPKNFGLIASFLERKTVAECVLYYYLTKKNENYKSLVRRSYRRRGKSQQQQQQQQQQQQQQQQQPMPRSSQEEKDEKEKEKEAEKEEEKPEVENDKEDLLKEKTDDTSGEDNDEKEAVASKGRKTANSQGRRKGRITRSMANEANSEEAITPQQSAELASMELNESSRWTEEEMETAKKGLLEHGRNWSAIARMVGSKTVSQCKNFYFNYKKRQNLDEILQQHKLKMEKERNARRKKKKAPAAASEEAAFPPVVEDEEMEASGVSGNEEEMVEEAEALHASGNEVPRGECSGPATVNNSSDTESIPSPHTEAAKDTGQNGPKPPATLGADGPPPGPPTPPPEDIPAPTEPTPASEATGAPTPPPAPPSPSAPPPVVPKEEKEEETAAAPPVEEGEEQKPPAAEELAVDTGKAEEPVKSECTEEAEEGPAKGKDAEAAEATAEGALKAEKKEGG
pIC50: −log10 of the molar value.
Respond with criterion met for pIC50 values of 9 and above, criterion not met for values below.

• CC(C)n1ccc2cc(-c3cnc([C@@H](N)CCCCCC(=O)c4ncco4)[nH]3)ccc2c1=O [Example 17] = criterion not met
• CN(C)C1(C(=O)N[C@@H](CCCCCC(=O)c2ccon2)c2ncc(-c3ccccc3F)[nH]2)CCC1 [Example 63] = criterion met
• COc1cc2c(ccc(=O)n2C)cc1-c1cnc([C@H](CCCCCC(=O)c2ccon2)NC(=O)C2CN(C)C2)[nH]1 [Example 102] = criterion met
• COc1nc2ccccc2cc1-c1c[nH]c([C@@H](N)CCCCCC(=O)c2ncco2)n1 [Example 15] = criterion not met
• COc1cc2nc(C)ccc2cc1-c1cnc([C@H](CCCCCC(=O)c2ccon2)NC(=O)C2CN(C)C2)[nH]1 [Example 103] = criterion met

---

measuredTarget: human HDAC2 (Homo sapiens (Human), UniProt Q92769)
Sequence (Q92769 whole entry): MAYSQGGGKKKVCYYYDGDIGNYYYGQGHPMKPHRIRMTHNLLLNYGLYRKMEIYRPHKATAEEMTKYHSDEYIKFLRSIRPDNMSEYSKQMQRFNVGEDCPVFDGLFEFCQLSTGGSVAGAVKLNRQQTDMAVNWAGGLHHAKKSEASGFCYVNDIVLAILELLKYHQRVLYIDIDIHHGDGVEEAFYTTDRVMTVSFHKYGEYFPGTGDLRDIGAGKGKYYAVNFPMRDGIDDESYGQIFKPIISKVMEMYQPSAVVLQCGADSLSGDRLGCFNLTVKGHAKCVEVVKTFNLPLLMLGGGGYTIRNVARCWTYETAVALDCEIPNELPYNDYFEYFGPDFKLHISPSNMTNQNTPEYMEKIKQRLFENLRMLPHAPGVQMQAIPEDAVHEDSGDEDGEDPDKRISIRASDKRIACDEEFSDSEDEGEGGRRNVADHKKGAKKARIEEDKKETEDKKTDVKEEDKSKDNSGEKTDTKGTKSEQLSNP
protocolText: HDAC2 inhibition assay (modified FLUOR DE LYS, 384-well)
Type: biochemical
experimentalEndpoint: IC50

• Cc1ccc2cc(-c3c[nH]c([C@H](CCCCCC(=O)c4ncco4)NC4CCN(C)CC4)n3)ccc2n1 [Example 78] = 8.3 nM

---

These records show pIC50 for human HDAC3/SMRT heterodimer (Homo sapiens (Human), UniProt O15379).
pIC50: −log10 of the molar value.
experimentalEndpoint: pIC50

* CCn1ccc2cc(-c3cnc([C@H](CCCCCC(=O)c4ncco4)NC(=O)CN(C)C)[nH]3)c(OC)cc2c1=O [Example 96] | 9.03
* CN[C@@H](CCCCCC(=O)c1ncco1)c1ncc(-c2ccc3nc(C)ccc3c2)[nH]1 [Example 75] | 8.41
* COc1cc2nc(C)ccc2cc1-c1cnc([C@H](CCCCCC(=O)c2ncco2)NC(=O)C2CCCCO2)[nH]1 (stereo partly shown) [Example 168] | 8.92
* Cc1ccc2cc(-c3cnc([C@@H](N)CCCCCC(=O)c4ncco4)[nH]3)c(Cl)cc2n1 [Example 22] | 8.17

---

measuredTarget: UniProt:Q13547
Sequence (Q13547 whole entry): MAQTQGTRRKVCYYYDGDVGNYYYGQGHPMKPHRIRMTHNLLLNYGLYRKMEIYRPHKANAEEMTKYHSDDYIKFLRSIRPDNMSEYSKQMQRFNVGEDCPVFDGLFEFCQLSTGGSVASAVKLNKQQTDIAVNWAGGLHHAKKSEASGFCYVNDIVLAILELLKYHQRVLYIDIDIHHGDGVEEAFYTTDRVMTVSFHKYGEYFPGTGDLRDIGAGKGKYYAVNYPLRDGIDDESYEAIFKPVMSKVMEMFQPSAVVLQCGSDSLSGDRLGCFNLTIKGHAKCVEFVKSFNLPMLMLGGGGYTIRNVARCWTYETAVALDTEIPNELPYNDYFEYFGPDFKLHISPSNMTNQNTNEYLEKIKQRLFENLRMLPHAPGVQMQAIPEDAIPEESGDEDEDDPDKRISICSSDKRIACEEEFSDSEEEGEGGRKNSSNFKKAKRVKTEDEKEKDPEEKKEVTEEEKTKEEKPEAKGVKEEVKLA
protocolText: biochemical
experimentalEndpoint: log10 IC50 (log10 of the value in nM)

• Cc1ccc2cc(-c3cn(C)c([C@@H](N)CCCCCC(=O)c4ncco4)n3)ccc2n1 = 1.18
• CN(C)CC(=O)N[C@@H](CCCCCC(=O)c1ccon1)c1nc(Cl)c(-c2ccc(F)cc2)[nH]1 = -0.70
• CCN1CCC2(CC1)C[C@@H]2C(=O)N[C@@H](CCCCCC(=O)c1ncco1)c1[nH]c(-c2ccc(F)cc2)nc1Cl = -1.31
• COc1cc2nc(C)ccc2cc1-c1cnc([C@@]2(CCCCCC(=O)c3ccon3)CCC(=O)N2)[nH]1 = -0.11
• Cc1ccc2cc(-c3c[nH]c([C@H](CCCCCC(=O)c4ncco4)NCc4ccccc4)n3)ccc2n1 = 0.53
• Cc1ccc2cc(-c3cnc([C@H](CCCCCC(=O)c4ncco4)NC(=O)C4=NOC5(CCN(C)CC5)C4)o3)ccc2n1 = 0.68
• COc1cc2nc(C)ccc2cc1-c1cnc([C@H](CCCCCC(=O)c2ncco2)NC(=O)C2CCC3(CC2)CN(C)C3)[nH]1 = -0.09

---

measuredTarget: UniProt Q13547
protocolText: biochemical
pIC50: −log10 of the molar value.
experimentalEndpoint: pIC50

* CN1CC(C(=O)N[C@@H](CCCCCC(=O)c2ncco2)c2[nH]c(-c3ccc(F)cc3)nc2Cl)C1 | 8.82
* CN(C)CC(=O)N[C@@H](CCCCCC(=O)c1ncco1)c1[nH]c(-c2ccc(F)cc2)nc1C#N | 9.55
* COc1cc2nc(C)ccc2cc1-c1cnc([C@H](CCCCCC(=O)c2ncco2)NC(=O)C2CN(C)C2)o1 | 9.35
* Cc1ccc2cc(-c3c[nH]c([C@H](CCCCCC(=O)c4ncco4)NC4CCOCC4)n3)ccc2n1 | 8.18
* N#Cc1nc(-c2ccc(F)cc2)oc1[C@@H](N)CCCCCC(=O)c1ncco1 | 7.59
* COc1ncccc1-c1c[nH]c([C@]2(CCCCCC(=O)c3ccon3)CCCC(=O)N2)n1 | 8.92
* Cc1ccc2cc(-c3cnc(C(N)CCCCCC(=O)c4ncco4)o3)ccc2n1 (centres unmarked) | 7.96
* COc1ncccc1-c1cnc([C@@H](N)CCCCCC(=O)c2ncco2)o1 | 8.05
* Cc1ccc2cc(-c3c[nH]c([C@H](CCCCCC(=O)c4ncco4)NC4CCN(C)CC4)n3)ccc2n1 | 8.55
* COc1cc2nc(C)ccc2cc1-c1cnc([C@H](CCCCCC(=O)c2ncco2)Nc2ncccn2)[nH]1 | 8.64
* COc1cc2nc(C)ccc2cc1-c1cnc([C@H](CCCCCC(=O)c2ccon2)NC(=O)[C@H]2CC23CCN(C)CC3)[nH]1 | 9.74
* Cc1ccc2cc(-c3c[nH]c([C@@H](N)CCCCCC(=O)c4ncco4)n3)ccc2n1 | 8.62
* COc1cc2nc(C)ccc2cc1-c1cnc([C@H](CCCCCC(=O)c2ncco2)NC2CC(OC)C2)[nH]1 (some centres unmarked) | 8.40
* O=C1CC[C@@](CCCCCC(=O)c2ccon2)(c2nc(-c3ccc(C4CC4)cc3F)c[nH]2)N1 | 9.00
* O=C1CC[C@@](CCCCCC(=O)c2ccon2)(c2nc(-c3ccccc3F)c[nH]2)N1 | 9.04
* O=C1CC[C@](CCCCCC(=O)c2ncco2)(c2ncc(-c3ccc(F)cc3)[nH]2)N1 | 8.66
* CN(C)CC(=O)N[C@@H](CCCCCC(=O)c1ncco1)c1ncc(-c2ccc3nccnc3c2)[nH]1 | 8.89

---

pIC50: −log10 of the molar value.
These records show pIC50 for human HDAC3/SMRT heterodimer (Homo sapiens (Human)).
experimentalEndpoint: pIC50

- COc1cc2nc(C)ccc2cc1-c1cnc([C@H](CCCCCC(=O)c2ncco2)NC(=O)CN2CCNCC2=O)[nH]1: 8.77
- COc1nc2ccccc2cc1-c1cnc([C@H](CCCCCC(=O)c2ncco2)NC(=O)c2cncs2)[nH]1: 8.82
- CCN1CCC2(CC1)C[C@@H]2C(=O)N[C@@H](CCCCCC(=O)c1ncco1)c1ncc(-c2cc(OC)ncc2F)[nH]1: 8.82
- COc1nc2ccccc2cc1-c1cnc([C@H](CCCCCC(=O)c2ncco2)NC(=O)CN2CCCCC2)[nH]1: 8.80
- COc1cc2nc(C)ccc2cc1-c1cnc([C@H](CCCCCC(=O)c2ccon2)NC(=O)CN(C)C)[nH]1: 8.82

---

measuredTarget: UniProt:Q92769
protocolText: HDAC2 inhibition assay (modified FLUOR DE LYS, 384-well)
Type: biochemical
settings: […] nM enzyme, 40 μM substrate BML-KI104, 3 h pre-incubation; read-out: HDAC2 IC50
experimentalEndpoint: IC50

- COc1cc2nc(C)ccc2cc1-c1cnc([C@H](CCCCCC(=O)c2ncco2)NC(=O)C2CCN(C)CC2)[nH]1: 3.6 nM
- COc1cc2ncccc2cc1-c1c[nH]c([C@@H](N)CCCCCC(=O)c2ccon2)n1: 5.1 nM
- COc1cc2nc(C)ccc2cc1-c1cnc([C@H](CCCCCC(=O)c2ccon2)NC(=O)C2CN(C)C2)o1: 0.35 nM
- CN1CC(C(=O)N[C@@H](CCCCCC(=O)c2ccon2)c2[nH]c(-c3ccccc3F)nc2Cl)C1: 0.37 nM

---

measuredTarget: human HDAC2 (Homo sapiens (Human))
protocolText: HDAC2 inhibition assay (modified FLUOR DE LYS, 384-well)
Type: biochemical
settings: […] enzyme, 40 μM substrate BML-KI104, 3 h pre-incubation; read-out: HDAC2 IC50
experimentalEndpoint: IC50 (nM)

* COc1cc2nc(C)ccc2cc1-c1cnc([C@H](CCCCCC(=O)c2cc(C)on2)NC(=O)C2CN(C)C2)[nH]1 | 1
* COc1nc2ccccc2cc1-c1cnc([C@H](CCCCCC(=O)c2ncco2)NC(=O)Cn2cccc2)[nH]1 | 8.8
* COc1cc2nc(C)ccc2cc1-c1cnc([C@H](CCCCCC(=O)c2ncco2)NC(=O)C2COc3ccccc3O2)[nH]1 (stereo partly shown) | 56
* COc1cc2nc(C)ccc2cc1-c1cnc([C@H](CCCCCC(=O)c2ncco2)NC(=O)Cn2cccc2)[nH]1 | 24
* CN(C)C1(C(=O)N[C@@H](CCCCCC(=O)c2ccon2)c2ncc(-c3ccccc3F)[nH]2)CCCC1 | 2.1
* CN1CCC2(CC1)C[C@@H]2C(=O)N[C@@H](CCCCCC(=O)c1ccon1)c1[nH]c(-c2ccccc2F)nc1Cl | 0.25
* CCn1cc(-c2ccc3nc(C)ccc3c2)nc1[C@@H](N)CCCCCC(=O)c1ncco1 | 230
* COc1cc2nc(C)ccc2cc1-c1cnc([C@H](CCCCCC(=O)c2ncco2)NC(=O)C2COCCO2)[nH]1 (stereo partly shown) [Example 174] | 3.7
* Cn1cc2cc(-n3ccc([C@@H](N)CCCCCC(=O)c4ncco4)n3)ccc2n1 | 55
* N[C@@H](CCCCCC(=O)c1ncco1)c1ncc(-c2ccc3nc(N4CCCC4)ccc3c2)[nH]1 | 9.4
* COc1cc2nc(C)ccc2cc1-c1cnc([C@H](CCCCCC(=O)c2ncco2)NC(=O)c2cc3ncccn3n2)[nH]1 | 11
* N[C@@H](CCCCCC(=O)c1ncco1)c1ncc(-c2cnc(C3CC3)cn2)[nH]1 | 23
* COc1cc2nc(C)ccc2cc1-c1cnc([C@H](CCCCCC(=O)c2ncco2)NC(=O)Cn2ccc(C)n2)[nH]1 | 6.2
* Cc1cc(C(=O)CCCCC[C@H](NC(=O)CN(C)C)c2nc(-c3ccccc3F)c[nH]2)no1 | 1
* COc1cc2nc(C)ccc2cc1-c1cnc([C@H](CCCCCC(=O)c2ccon2)NC(=O)C2CN(C)C2)[nH]1 | 0.44
* COc1nc2ccccc2cc1-c1cnc([C@H](CCCCCC(=O)c2ncco2)NC(=O)C2COCCO2)[nH]1 (stereo partly shown) | 5.8
* COc1nc2ccccc2cc1-c1c[nH]c([C@H](CCCCCC(=O)c2ccon2)NC(=O)C2CCN(C)CC2)n1 | 1.8
* CCN(CC)CC(=O)N[C@@H](CCCCCC(=O)c1ncco1)c1ncc(-c2cc3ccccc3nc2OC)[nH]1 | 3.2
* CN1CCC2(CC1)C[C@@H]2C(=O)N[C@@H](CCCCCC(=O)c1ncco1)c1[nH]c(-c2ccc(F)cc2)nc1C#N | 0.83
* COc1cc2nc(C)ccc2cc1-c1cnc([C@H](CCCCCC(=O)c2ncco2)NC(=O)C2CCCO2)[nH]1 (stereo partly shown) | 15
* COc1nc2ccccc2cc1-c1cnc([C@H](CCCCCC(=O)c2ncco2)NC(=O)C2(c3cnccn3)CC2)[nH]1 | 5.3
* N[C@@H](CCCCCC(=O)c1ncco1)c1ncc(-c2cccc(C(F)(F)F)c2F)[nH]1 | 37
